Entry source: the supplement of paper PMC10065799

Tested on: c-Abl (mouse)
assay-details: phosphorylation enrichment, bacterial display (enrichment ratio); higher = better substrate or ligand; peptides without Tyr show the background
Field: phosphorylation enrichment. Provide a value for each of the sequences that follow.
Give bare numbers.

Example entries begin here.
For the sequence shown here, RLLRGHDQSAY [HLA-C_Y137_Y137H] , give the reported phosphorylation enrichment.
0.597

For the sequence shown here, PVKTPYSLKRW [BMPR2_Y979_R974P] , give the reported phosphorylation enrichment.
1.14

For the sequence shown here, NKEAICSGYIR [SMCHD1_Y283_Y283C] , give the reported phosphorylation enrichment.
1.3

For the sequence shown here, SHLLRYLSWTV [CLCNKB_Y93] , give the reported phosphorylation enrichment.
0.781

For the sequence shown here, FSGLAYTMERS [GLUD1_Y512_H507Y_YF] , give the reported phosphorylation enrichment.
0.613

For each of the sequences below, state phosphorylation enrichment.
1. WQQQSYLDLGI [CTNNB1_Y30_S33L]
2. TRSFDYMEGGD [FGF7_Y58_YF]
3. LTELGYSFVTT [ACTA1_Y200_R198L]
4. KTNVSYCGALD [CACNB4_Y103]
5. VIKDKYPKARF [APTX_Y209_YF]
6. PLQNTYNFNVL [SLC4A1_Y553_K551N_YF]
7. GSTLSYFGLAA [P2RX7_Y343]

[0.685, 0.761, 1.51, 0.745, 0.646, 0.893, 0.525]

For each of the sequences below, state phosphorylation enrichment.
1. KDKLPYLFDDP [GPX2_Y125_P126L_YF]
2. VAVTKYCKEEL [ATP7B_Y1078]
3. SKDQIYPMKLK [RANBP17_Y823]
4. MSYDRYMAICH [OR2A5_Y123]
5. VNYGAYINNFK [GLB1_Y488_D491N]

0.557
0.651
0.449
0.695
0.483

For each of the sequences below, state phosphorylation enrichment.
1. HKLSFCEFDFE [BTK_Y40_Y40C_YF]
2. KAIMIYVSSFY [ACTN4_Y260_T259I]
3. LQFKNYQQLFD [MAN2A1_Y442]
4. DRLASYQDKVR [KRT12_Y139_L140Q]
5. SGRSGYCLGTR [SCO1_Y60_P58S]
6. QMVGMYAFSYM [AVPR2_Y124_S126F]
7. AGRSGYDNREI [BCL2_Y9_T7S]

1: 1.78; 2: 0.972; 3: 0.636; 4: 0.516; 5: 0.514; 6: 1.27; 7: 0.551

For each of the sequences below, state phosphorylation enrichment.
1. RSACTYLAPHL [PLK3_Y615_S618P]
2. FFRRHYPLTTL [TNS4_Y644]

1. 6.67
2. 0.587

---

assayed-system: Fyn (UniProt P06241)
Sequence (P06241 whole entry, looked up): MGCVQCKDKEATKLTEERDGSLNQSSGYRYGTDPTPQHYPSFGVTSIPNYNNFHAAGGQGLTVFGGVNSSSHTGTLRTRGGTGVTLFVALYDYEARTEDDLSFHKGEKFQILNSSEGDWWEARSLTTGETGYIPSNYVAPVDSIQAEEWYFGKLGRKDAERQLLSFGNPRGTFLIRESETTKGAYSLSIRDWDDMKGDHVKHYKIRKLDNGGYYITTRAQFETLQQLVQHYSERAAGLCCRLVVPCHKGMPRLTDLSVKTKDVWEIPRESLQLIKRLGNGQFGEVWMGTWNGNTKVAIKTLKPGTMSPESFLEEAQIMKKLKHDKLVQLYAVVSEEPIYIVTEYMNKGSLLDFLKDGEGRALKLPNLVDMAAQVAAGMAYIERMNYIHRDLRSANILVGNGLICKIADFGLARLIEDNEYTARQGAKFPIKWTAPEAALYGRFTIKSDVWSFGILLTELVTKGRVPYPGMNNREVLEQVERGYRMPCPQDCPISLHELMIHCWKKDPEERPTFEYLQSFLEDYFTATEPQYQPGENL
assay-details: phosphorylation enrichment, bacterial display (enrichment ratio); higher = better substrate or ligand; peptides without Tyr show the background
Field: phosphorylation enrichment. Provide a value for each of the sequences that follow.
Numbers only.

Example entries begin here.
For the sequence shown here, DLDTEYGSGYP [RNASEH2A_Y206_D205E] , give the reported phosphorylation enrichment.
0.49

For the sequence shown here, DPLLTYRFPPK [LMNA_Y481] , give the reported phosphorylation enrichment.
0.502

For the sequence shown here, RLLRGYDQFAY [HLA-C_Y137_S140F] , give the reported phosphorylation enrichment.
0.395

For the sequence shown here, KPFRVYCDMNT [FGB_Y269_YF] , give the reported phosphorylation enrichment.
0.493

For the sequence shown here, ILGRFYETSSI [PAX2_Y73_G76S_YF] , give the reported phosphorylation enrichment.
0.399

For each of the sequences below, state phosphorylation enrichment.
1. EAIMTYVSSFY [ACTN4_Y260_K255E]
2. KNNDGYIDFAE [MCFD2_Y135_YF]
3. DVFRQYASLRG [GANAB_Y379_T383R]

1: 0.503; 2: 0.406; 3: 0.393

---

Test system: AncSZ
assay-details: phosphorylation enrichment, bacterial display (enrichment ratio); higher = better substrate or ligand; peptides without Tyr show the background
assay-metric: phosphorylation enrichment
Give bare numbers.

For each of the sequences below, state phosphorylation enrichment.
1. FSCLPCGRLAF [SLC52A2_Y305_Y305C_YF]
2. ATPKGYERDAS [OTC_Y223_P225R]
3. QQLVAYYSKHA [SRC_Y232]
4. CVAARYMDMKG [WFIKKN2_Y93_V96M]

1. 0.752
2. 0.591
3. 1.75
4. 0.755

For each of the sequences below, state phosphorylation enrichment.
1. DSDTDYGSGFP [RNASEH2A_Y206_L202S_YF]
2. FRVAGYETQGG [TIA1_Y383_YF]

[1.1, 0.68]

---

assayed-system: Grb2 SH2 (UniProt P62993)
Sequence (P62993 whole entry, looked up): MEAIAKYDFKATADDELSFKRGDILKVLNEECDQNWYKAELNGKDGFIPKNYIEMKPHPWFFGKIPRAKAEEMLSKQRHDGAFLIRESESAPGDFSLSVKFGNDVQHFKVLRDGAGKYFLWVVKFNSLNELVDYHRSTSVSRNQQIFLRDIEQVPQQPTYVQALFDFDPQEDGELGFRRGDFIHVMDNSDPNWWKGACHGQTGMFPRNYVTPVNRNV
assay-details: SH2 binding enrichment of the phosphorylated peptide, bacterial display (enrichment ratio); higher = better substrate or ligand; peptides without Tyr show the background
Lab note: anything with SH2 binding enrichment at or over 0.9 counts as rule met; the rest go in rule not met.

Please review the entries below; each comes with its answer.
Please indicate if the recorded SH2 binding enrichment for FPQARYHWLVL [APTX_Y214_K211Q_YF] meets or exceeds 0.9.
rule met

Please indicate if the recorded SH2 binding enrichment for DEEEEYEFMNR [ERBB3_Y1197_D1194E_YF] meets or exceeds 0.9.
rule met

Please indicate if the recorded SH2 binding enrichment for QEALEYFMKQT [PIK3CA_Y1038_M1043T] meets or exceeds 0.9.
rule not met

Please indicate if the recorded SH2 binding enrichment for TLNHQYDFTFH [CSNK1A1_Y292_D297H_YF] meets or exceeds 0.9.
rule met

Please indicate if the recorded SH2 binding enrichment for GESKDYALHAG [SVIL_Y185_V189A] meets or exceeds 0.9.
rule not met

---
Please indicate if the recorded SH2 binding enrichment for RLSARYFQGDL [PDK3_Y337_Y334S] meets or exceeds 0.9.
rule not met

Please indicate if the recorded SH2 binding enrichment for `ITKNPYDPPGR` meets or exceeds 0.9.
rule not met

Please indicate if the recorded SH2 binding enrichment for AGTILYHAHLD [ASS1_Y291] meets or exceeds 0.9.
rule met

Please indicate if the recorded SH2 binding enrichment for YYSSEYHYVGG [CTSC_Y345] meets or exceeds 0.9.
rule met

Please indicate if the recorded SH2 binding enrichment for FPKARYHWLVL [APTX_Y214_YF] meets or exceeds 0.9.
rule met

Please indicate if the recorded SH2 binding enrichment for LERYIYNREEY [HLA-DPB1_Y59_F64Y] meets or exceeds 0.9.
rule met

Please indicate if the recorded SH2 binding enrichment for IGLHAYGDQYR [IDH1_Y135_R132L] meets or exceeds 0.9.
rule not met

Please indicate if the recorded SH2 binding enrichment for DMLFQYLKQIE [RPAP3_Y569_YF] meets or exceeds 0.9.
rule met

Please indicate if the recorded SH2 binding enrichment for VLALWYFFLTN [ZDHHC23_Y127_H132N_YF] meets or exceeds 0.9.
rule met

Please indicate if the recorded SH2 binding enrichment for RASSVFTRSTG [CCR5_Y339_Y339F] meets or exceeds 0.9.
rule not met

Please indicate if the recorded SH2 binding enrichment for KSPDSYQKILF [ATM_Y1415_L1420F] meets or exceeds 0.9.
rule met

---

assayed-system: MERTK (UniProt Q12866)
Sequence (Q12866 whole entry, looked up): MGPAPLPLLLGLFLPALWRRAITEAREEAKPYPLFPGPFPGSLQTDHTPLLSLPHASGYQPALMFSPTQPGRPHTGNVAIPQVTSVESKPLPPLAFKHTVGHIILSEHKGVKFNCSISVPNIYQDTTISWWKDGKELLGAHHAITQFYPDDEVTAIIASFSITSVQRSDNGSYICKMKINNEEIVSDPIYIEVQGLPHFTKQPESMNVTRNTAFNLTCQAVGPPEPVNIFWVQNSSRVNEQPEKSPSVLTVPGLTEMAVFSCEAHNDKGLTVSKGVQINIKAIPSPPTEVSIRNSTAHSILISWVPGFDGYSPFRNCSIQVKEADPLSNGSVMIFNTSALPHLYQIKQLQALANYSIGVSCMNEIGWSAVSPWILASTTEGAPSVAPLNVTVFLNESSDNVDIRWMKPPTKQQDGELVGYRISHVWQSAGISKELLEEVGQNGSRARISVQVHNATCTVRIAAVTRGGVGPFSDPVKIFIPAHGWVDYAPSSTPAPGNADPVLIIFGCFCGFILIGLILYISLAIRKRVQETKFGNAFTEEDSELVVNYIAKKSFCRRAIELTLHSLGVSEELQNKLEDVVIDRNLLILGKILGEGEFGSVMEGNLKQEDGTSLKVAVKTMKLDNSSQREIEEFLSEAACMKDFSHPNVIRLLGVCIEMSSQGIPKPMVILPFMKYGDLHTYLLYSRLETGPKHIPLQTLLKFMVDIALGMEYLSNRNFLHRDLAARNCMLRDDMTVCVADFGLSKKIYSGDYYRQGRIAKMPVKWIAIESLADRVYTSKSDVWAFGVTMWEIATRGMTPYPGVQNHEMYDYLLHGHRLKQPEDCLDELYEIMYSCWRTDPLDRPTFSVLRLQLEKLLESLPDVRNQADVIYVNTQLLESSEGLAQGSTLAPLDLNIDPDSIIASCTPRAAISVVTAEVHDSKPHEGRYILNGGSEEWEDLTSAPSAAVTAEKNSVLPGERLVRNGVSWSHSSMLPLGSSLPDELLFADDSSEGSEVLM
assay-details: phosphorylation enrichment, bacterial display (enrichment ratio); higher = better substrate or ligand; peptides without Tyr show the background
assay-metric: phosphorylation enrichment

Example entries begin here.
For the sequence shown here, KWHREYNSKFV [RICTOR_Y835_YF] , give the reported phosphorylation enrichment.
0.37

For the sequence shown here, VMLENYSNLVS [ZFP69_Y109] , give the reported phosphorylation enrichment.
0.375

For the sequence shown here, AGQKDYDRLRP [RAC3_Y64_E62K] , give the reported phosphorylation enrichment.
0.358

# context switch: different sequence, same phosphorylation enrichment
For the sequence shown here, KRYRIYHLATS [BRCA2_Y3009] , give the reported phosphorylation enrichment.
0.322

---

System: Fer (mouse)
assay-details: phosphorylation enrichment, bacterial display (enrichment ratio); higher = better substrate or ligand; peptides without Tyr show the background
assay-metric: phosphorylation enrichment
Give bare numbers.

Item SLFNGYVFSGM [NEIL3_Y71_V76M_YF] with Fer (mouse) - phosphorylation enrichment?
0.504

For each of the sequences below, state phosphorylation enrichment.
1. IFRASYFRKGG [ALK_Y1282_YF]
2. DNLNNYVFQGQ [GRIN2A_Y978]
3. AEDKPYAELWM [MPI_Y46]
4. GVKLTYGDAQN [SLC28A1_Y404]
5. CTTIHYNFTCN [TP53_Y234_M237T_YF]
6. NELTYYCCKKD [CD59_Y87]
7. ANFAKYGNPNE [BCHE_Y505]

[0.581, 0.514, 10.8, 0.397, 0.426, 3.67, 0.406]
